B1: glmS ribozyme (parent)
chain: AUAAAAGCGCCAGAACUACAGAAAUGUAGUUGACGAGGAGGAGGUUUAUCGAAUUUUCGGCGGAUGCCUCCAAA

# Variants of: B1
# ASSAY REMARKS: self-cleavage kobs at 640 uM GlcN6P; higher = faster cleavage; RNA array
# TEST CONDITIONS: with glucosamine-6-phosphate
Variants at the floor of the assay were thinned out.
EXPERIMENTAL READOUT: self-cleavage kobs at 640 uM GlcN6P (s⁻¹)
Give just the number in s⁻¹; leave the unit off.

Examples with their reported self-cleavage kobs at 640 uM GlcN6P follow.
A12U C70A    0.00047
U46C C58A    2.77e-05
C16U A42U C67G    0.000203
C8U G13A G35A G38A G63A C68U    0.001
A42C U65G U69G    0.000819
C34U G51A U57G U69G    0.000271

// below: self-cleavage kobs at 640 uM GlcN6P requested for another variant
Query: Report self-cleavage kobs at 640 uM GlcN6P for U54C U56A please.
Reply: 0.00291
